target: α1β2γ2 GABAA receptors (Homo sapiens, UniProt P14867+P47870); construct: expressed in transfected cells; host or cells: 293T cells (ATCC-CRL-1573); experiment: GABAAR modulator FLIPR assay (membrane potential), α1β2γ2; type: cell-based; conditions: 293T cells transiently expressing α1β2γ2 GABAA receptors; FLIPR, PAM activity; read-out: EC50 in α1β2γ2/293T
Sequence (P14867 28-456): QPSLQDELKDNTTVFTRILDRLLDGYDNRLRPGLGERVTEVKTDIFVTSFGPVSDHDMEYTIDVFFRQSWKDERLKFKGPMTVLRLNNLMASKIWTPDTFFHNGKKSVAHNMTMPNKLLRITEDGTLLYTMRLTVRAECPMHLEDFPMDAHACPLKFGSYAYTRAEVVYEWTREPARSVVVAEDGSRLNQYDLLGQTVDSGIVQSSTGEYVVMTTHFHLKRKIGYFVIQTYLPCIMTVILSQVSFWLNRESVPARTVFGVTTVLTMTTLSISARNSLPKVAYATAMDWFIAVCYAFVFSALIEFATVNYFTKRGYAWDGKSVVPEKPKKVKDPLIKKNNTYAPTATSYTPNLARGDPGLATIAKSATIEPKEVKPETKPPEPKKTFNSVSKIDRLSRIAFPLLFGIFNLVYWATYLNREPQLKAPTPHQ
Sequence (P47870 25-512 limits assumed): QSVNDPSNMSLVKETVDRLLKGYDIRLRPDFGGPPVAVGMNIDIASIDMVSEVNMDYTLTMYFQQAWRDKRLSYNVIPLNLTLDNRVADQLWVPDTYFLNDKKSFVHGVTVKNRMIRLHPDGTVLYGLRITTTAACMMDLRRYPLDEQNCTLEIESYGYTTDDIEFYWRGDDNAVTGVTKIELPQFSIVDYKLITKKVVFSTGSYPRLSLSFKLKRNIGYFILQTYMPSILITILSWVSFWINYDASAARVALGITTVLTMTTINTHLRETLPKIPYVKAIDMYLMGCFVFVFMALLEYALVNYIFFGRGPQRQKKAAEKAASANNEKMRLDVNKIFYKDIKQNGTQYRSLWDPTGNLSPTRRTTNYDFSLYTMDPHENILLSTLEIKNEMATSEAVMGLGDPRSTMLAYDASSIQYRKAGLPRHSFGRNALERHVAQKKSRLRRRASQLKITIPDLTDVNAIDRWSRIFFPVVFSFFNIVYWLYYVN
Sequence (P18507 40-475 partner): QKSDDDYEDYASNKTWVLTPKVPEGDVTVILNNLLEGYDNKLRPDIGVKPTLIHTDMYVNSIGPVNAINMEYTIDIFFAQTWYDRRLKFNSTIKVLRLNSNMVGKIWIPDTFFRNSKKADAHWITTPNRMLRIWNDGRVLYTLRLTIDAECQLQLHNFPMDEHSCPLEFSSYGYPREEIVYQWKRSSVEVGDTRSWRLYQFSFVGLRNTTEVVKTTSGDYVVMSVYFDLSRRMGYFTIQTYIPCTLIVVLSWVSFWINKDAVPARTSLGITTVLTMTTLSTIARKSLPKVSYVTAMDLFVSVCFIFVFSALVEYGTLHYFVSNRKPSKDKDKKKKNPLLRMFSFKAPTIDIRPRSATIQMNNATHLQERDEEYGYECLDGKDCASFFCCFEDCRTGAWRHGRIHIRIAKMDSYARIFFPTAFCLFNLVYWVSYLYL
measurement_name: EC50 (nM)
One number for each entry, in nM.

>>> val("C[C@@]1(O)CC[C@H]2[C@H](CC[C@@H]3[C@@H]2CC(F)(F)[C@]2(C)[C@@H](C(=O)Cn4ccc(C#N)n4)CC[C@@H]32)C1")
630

# batch: return EC50 for each of the 2 molecules below
1. C[C@@]1(O)CC[C@H]2[C@H](CC[C@@H]3[C@@H]2CC(F)(F)[C@]2(C)[C@@H](C(=O)Cn4cc(F)cn4)CC[C@@H]32)C1
2. CC(=O)[C@H]1CC[C@H]2[C@@H]3CC[C@@H]4C[C@](C)(O)CC[C@@H]4[C@H]3CC(F)(F)[C@]12C

1. 740
2. 390

The values you see were collected from patent US20210188897A1.
